Ref: paper PMC6271978

The entries below are paired with their reported melting point.

- smiles repr: "CCOC(=O)CCCCNC(=O)c1ccc(C2Nc3cccc4cccc(c34)N2)nc1"
  melting point: "109.4 to 113.5 °C"
- smiles repr: "CC(C)(C)OC(=O)NCCC(=O)Nc1ccc(C2Nc3cccc4cccc(c34)N2)cc1"
  melting point: "111.1 to 113.7 °C"
- smiles repr: "CCOC(=O)CCCNC(=O)c1ccc(C2Nc3cccc4cccc(c34)N2)cc1"
  melting point: "128.6 to 132.5 °C"
- smiles repr: "O=C(O)CNC(=O)c1ccc(C2Nc3cccc4cccc(c34)N2)cc1"
  melting point: "85.4 to 90.3 °C"
